FYI, the data here is from patent US10294230B2.

# SYSTEM_TESTED: human NR1/NR2B (Homo sapiens (Human), UniProt Q05586+Q13224)
# Sequence (Q13224 27-1484, other chains not shown): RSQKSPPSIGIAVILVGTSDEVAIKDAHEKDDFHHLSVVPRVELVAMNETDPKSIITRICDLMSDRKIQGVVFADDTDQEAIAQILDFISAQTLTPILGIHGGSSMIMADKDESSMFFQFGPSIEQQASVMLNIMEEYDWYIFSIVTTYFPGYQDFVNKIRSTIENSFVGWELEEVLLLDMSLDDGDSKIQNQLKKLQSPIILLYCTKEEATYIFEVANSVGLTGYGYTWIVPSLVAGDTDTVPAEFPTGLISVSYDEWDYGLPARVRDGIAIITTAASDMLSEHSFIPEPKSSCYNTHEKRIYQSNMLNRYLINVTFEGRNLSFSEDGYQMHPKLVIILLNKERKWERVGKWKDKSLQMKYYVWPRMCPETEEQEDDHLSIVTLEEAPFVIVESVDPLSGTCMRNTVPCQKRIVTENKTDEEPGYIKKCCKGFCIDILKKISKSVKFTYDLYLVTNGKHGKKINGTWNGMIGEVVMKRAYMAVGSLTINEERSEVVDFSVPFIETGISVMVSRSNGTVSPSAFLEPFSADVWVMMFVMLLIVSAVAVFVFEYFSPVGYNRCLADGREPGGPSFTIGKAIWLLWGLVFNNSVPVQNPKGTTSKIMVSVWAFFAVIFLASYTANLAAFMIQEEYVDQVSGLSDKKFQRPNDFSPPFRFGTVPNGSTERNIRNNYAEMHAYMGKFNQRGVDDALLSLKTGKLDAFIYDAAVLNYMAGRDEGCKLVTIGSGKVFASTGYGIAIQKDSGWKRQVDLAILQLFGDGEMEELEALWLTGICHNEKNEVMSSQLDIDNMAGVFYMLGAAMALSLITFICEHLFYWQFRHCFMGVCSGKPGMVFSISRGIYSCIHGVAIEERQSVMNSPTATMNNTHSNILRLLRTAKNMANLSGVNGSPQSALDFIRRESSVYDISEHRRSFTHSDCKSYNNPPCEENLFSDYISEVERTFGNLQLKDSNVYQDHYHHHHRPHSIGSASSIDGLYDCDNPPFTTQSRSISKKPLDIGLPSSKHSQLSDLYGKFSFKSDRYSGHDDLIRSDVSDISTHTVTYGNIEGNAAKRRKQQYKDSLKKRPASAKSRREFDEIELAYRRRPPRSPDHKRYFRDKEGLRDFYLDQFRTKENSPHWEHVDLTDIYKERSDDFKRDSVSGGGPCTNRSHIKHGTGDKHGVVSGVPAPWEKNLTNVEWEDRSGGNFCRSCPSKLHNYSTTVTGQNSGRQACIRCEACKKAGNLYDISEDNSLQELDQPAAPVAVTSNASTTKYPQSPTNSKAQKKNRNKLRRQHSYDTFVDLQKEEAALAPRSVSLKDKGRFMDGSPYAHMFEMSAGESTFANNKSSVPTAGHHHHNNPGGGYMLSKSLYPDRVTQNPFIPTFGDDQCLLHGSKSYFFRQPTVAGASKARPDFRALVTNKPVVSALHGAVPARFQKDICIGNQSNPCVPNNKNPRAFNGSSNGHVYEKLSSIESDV
# ASSAY_DETAILS: NR2B antagonist activity, Fluo-4 calcium influx in HEK293 cells
# Type: cell-based
# CONDITION_INFO: Table 2.1; HEK293 human NR1/NR2B, glutamate 100 μM, glycine 50 μM
EXPERIMENTAL_READOUT: IC50
Put your answer as a value accompanied by its unit after it.

For human NR1/NR2B (Homo sapiens (Human), UniProt Q05586+Q13224), provide IC50 of O=C(OCc1ccc(F)cc1)N1CC[C@H](CNc2nccn3cnnc23)C(F)(F)C1 [Compound E1-1.4] please.
20.5 nM

# returns recorded IC50 (system: human NR1/NR2B (Homo sapiens (Human), UniProt Q05586+Q13224)) for Cc1ccc(COC(=O)N2CC[C@H](CNc3nc4ccccn4n3)C(F)(F)C2)cc1 [Compound E1-9.2]
48.2 nM

Fill in the recorded IC50 for this compound, with human NR1/NR2B (Homo sapiens (Human), UniProt Q05586+Q13224) as test system: Cc1ccc(COC(=O)N2CC[C@H](CNc3nccn4cnnc34)C(F)(F)C2)cc1 [Compound E1-1.2]
21 nM

// lookup IC50 | system=human NR1/NR2B (Homo sapiens (Human), UniProt Q05586+Q13224) | key= Cc1ccc(COC(=O)N2CC[C@H](CNc3cncc4nncn34)C(F)(F)C2)cc1 [Compound E1-2.2]
10.4 nM

What is its IC50 for human NR1/NR2B (Homo sapiens (Human), UniProt Q05586+Q13224)? Entry: Cc1ccc(COC(=O)N2CC[C@H](CNc3cnccn3)C(F)(F)C2)cc1 [Compound E1-21.2]
14.4 nM

What is its IC50 for human NR1/NR2B (Homo sapiens (Human), UniProt Q05586+Q13224)? Entry: Cc1ccc(COC(=O)N2CC[C@H](CNc3ncc4cn[nH]c4n3)C(F)(F)C2)cc1 [Compound E1-8.2]
17 nM

Item: Cc1ccc(COC(=O)N2CC[C@@H](CNc3nccn4cnnc34)C(F)(F)C2)cc1 [Compound E2-1.2] Test system: human NR1/NR2B (Homo sapiens (Human), UniProt Q05586+Q13224) Read-out: IC50 Value: ?
156 nM

Given the entry Cc1ccc(COC(=O)N2CC[C@H](CNc3cnc(C)cn3)C(F)(F)C2)cc1 [Compound E1-21.26] , what IC50 was observed with human NR1/NR2B (Homo sapiens (Human), UniProt Q05586+Q13224)?
38.7 nM

Give recorded IC50 with human NR1/NR2B (Homo sapiens (Human), UniProt Q05586+Q13224) for the following compound: O=C(OCc1ccc(Cl)cc1)N1CC[C@H](CNc2nccn3cnnc23)C(F)(F)C1 [Compound E1-1.3]
14.8 nM
